The values you see were collected from ChEMBL document CHEMBL1201862.

- Test system: NCI-H522
- Assay Details: NCI tumour cell line growth inhibition, 48 h
Activity calls are given as the source filed them. Rule as the data show it: active = GI50 up to about 1.1 µM and inactive = higher. *1 amine or outer side, *2 acyl side, *3 side chain or, on linkers, in order; H or OH if unused. Where a SMILES comes first, the peptide text is derived from it. Bridges are numbered along the chain shown (N, C = ends). Roman numbers before positions name the chains, in order. [ ]: non-standard residue; d: D form. Actinocin(9to1) = Cc1c2oc3c(C)ccc(C(=O)[*:1])c3nc-2c(C(=O)[*:2])c(N)c1=O; NMeV = CN[CH](C(=O)O)C(C)C; Sar = CNCC(=O)O
Hello, when you answer, please use one of the following outcomes: 1 for active, 0 for inactive

Recorded test call requested for O=C1CCC(=O)c2c1c(O)c1ccncc1c2O
0

Just curious, what result did Cc1c2oc3c(C)ccc(C(=O)NC4C(=O)NC(C(C)O)C(=O)N5CCCC5C(=O)N(C)CC(=O)N(C)C(C(C)C)C(=O)OC4C)c3nc-2c(C(=O)NC2C(=O)NC(C(C)O)C(=O)N3CCCC3C(=O)N(C)CC(=O)N(C)C(C(C)C)C(=O)OC2C)c(N)c1=O (configuration not stated) (I: TTP[Sar][NMeV] / II: TTP[Sar][NMeV]; ester I:1-I:C, II:1-II:C; linker I:N-II:N via Actinocin(9to1); configuration not given here) get here?
1
